Data origin, for the record: the supplement of paper PMC9732359

- Assay remarks: protein stability index of a GFP-peptide fusion (yeast GPS) (PSI 1-4); higher = more stable; sorted into four equal gates, so the index is relative within each strain
- Measurement setup: ubr1∆
Assay readout: protein stability index

Sequence input: LLGPTLEDHTPPEDKPN [QCR10]
Recorded number: 2.94
--
Sequence input: RRGYQVYREVCAACHSL [CYT1]
Recorded number: 1.59
--
Sequence input: GTTATGTGLFGQQTAQP [YGR119C/NUP57]
Recorded number: 3
--
Sequence input: TRDEETTKLAFLVEYEG [SIR4]
Recorded number: 2.96
--
Sequence input: IEDRDFLVRYACEPTAE [SIR3]
Recorded number: 3.08
--
Sequence input: SLDNKTLDDLVTKWTNQ [YJL041W/NSP1]
Recorded number: 3.17
--
Sequence input: SEILSFDPVYTTVITVF [YML103C/NUP188]
Recorded number: 1.62
--
Sequence input: NISRDFQSYIVSSLPGS [COR1]
Recorded number: 1.85
--
Sequence input: NSISDFLGEQVNEPTKN [RPN1]
Recorded number: 3.18
--
Sequence input: NGEEIVGFWKDDGDDED [MTR3]
Recorded number: 3.45
--
Sequence input: GLCGAGTNNARLAQLLR [RPN1]
Recorded number: 1.16
--
Sequence input: DVRRLKKNVWRSINNLI [BRN1]
Recorded number: 1.1
--
Sequence input: IFQAKRNSNPENTVGLI [RPN10]
Recorded number: 3.21
--
Sequence input: PEGTLSGGSRNTSESLL [SMC2]
Recorded number: 3.28

====

- Assay remarks: protein stability index of a GFP-peptide fusion (yeast GPS) (PSI 1-4); higher = more stable; sorted into four equal gates, so the index is relative within each strain
- Measurement setup: ubr1∆

Sequence input: STKRVTKHPSLKTLTHK [POP7]
protein stability index: 2.64

Sequence input: IHGQDFQFFPKELDALQ [ISW2]
protein stability index: 2.78

Sequence input: WVNMLLISSSGPIKTPV [FAS2]
protein stability index: 1.53

Sequence input: KYACLAIRKNGQIDFWY [SIN4]
protein stability index: 2.39

Sequence input: ILSSVNRTVLLKIFKIF [SRB8]
protein stability index: 1.13

Sequence input: FIKEIHKSIELISNLLF [YCS4]
protein stability index: 2.46

Sequence input: SDPQMKVFDTLTRFSHD [RPN1]
protein stability index: 2.94

Sequence input: KIEGVATPQEAQFYLGK [RPL33B]
protein stability index: 3

Sequence input: LSIAFENGDYAACEKLL [RPN12]
protein stability index: 3.24

Sequence input: LSIELEGGKNQAELLQL [YJL039C/NUP192]
protein stability index: 2.67

Sequence input: TGGQTIDNGTGRTGNGN [MED6]
protein stability index: 2.72

Sequence input: FVKFLSKKGSLENNIRE [RPL10]
protein stability index: 3.3

Sequence input: ALIDAGISMFDYISGIS [SKI6]
protein stability index: 1.68

Sequence input: IKFFWNNTHVGRQFCNR [YLR018C/POM34]
protein stability index: 1.9

====

Known protein stability index of a selection of sequences
- Assay remarks: protein stability index of a GFP-peptide fusion (yeast GPS) (PSI 1-4); higher = more stable; sorted into four equal gates, so the index is relative within each strain
- Measurement setup: san1∆
Assay readout: protein stability index

Sequence input: QKCFKLTHRLGGDTCSS [POP1]
Recorded number: 2.55
--
Sequence input: TSIGIKCNDGVVFAVEK [PRE10]
Recorded number: 2.61
--
Sequence input: IEQCKHPLHELIIQYPP [ISW2]
Recorded number: 2.59
--
Sequence input: ELDPECQLQNSDNSEEE [RRP43]
Recorded number: 2.94
--
Sequence input: FLKVKGLVKQHLDSFNY [RET1]
Recorded number: 2.78
--
Sequence input: FDNVASVFMPLIFIACN [ECM29]
Recorded number: 2.57
--
Sequence input: LICSIGLHSSEYKLRSL [ECM29]
Recorded number: 2.26
--
Sequence input: KRKLDIGKDTFVTRKSR [PRP8]
Recorded number: 2.91

====

- Assay remarks: protein stability index of a GFP-peptide fusion (yeast GPS) (PSI 1-4); higher = more stable; sorted into four equal gates, so the index is relative within each strain
- Measurement setup: pdr5∆

Sequence input: KISNSEFFNPEIFHLLQ [SIN4]
protein stability index: 1.74
//
Sequence input: PDAKIQVRRDIPSAAFN [YMR129W/POM152]
protein stability index: 1.89
//
Sequence input: NSSNYFGELQFAFLNAM [AAR2]
protein stability index: 2.94
//
Sequence input: KLKQGQKLFVQVSNFAP [GAL11]
protein stability index: 2.81
//
Sequence input: DSQIVTPGELVTDDPIW [RRP4]
protein stability index: 3.07
//
Sequence input: IETEFLLFTVKLKGLMK [IRR1]
protein stability index: 3.06
//
Sequence input: ELLLTTLSVSHGINLQN [SSN2]
protein stability index: 2.04
//
Sequence input: ASSLRFGNSLSNTVNAN [YDL088C/ASM4]
protein stability index: 2.78
//
Sequence input: LVAIFGGQGNTDDYFEE [FAS1]
protein stability index: 3.48
//
Sequence input: KIKAILESVGIEIEDEK [RPP2A]
protein stability index: 3.3
//
Sequence input: LVQLFLWDSKELEQLVE [RPN3]
protein stability index: 2.78
//
Sequence input: NLFGATANANKPAFSFG [YJL041W/NSP1]
protein stability index: 3.18
//
Sequence input: SKINELSYYVEETNVDI [SMC4]
protein stability index: 2.98
//
Sequence input: EKGSWEQLSPQDVLQML [BRR2]
protein stability index: 3.27
//
Sequence input: KSKSSLDGKFSLFHTAV [RPN2]
protein stability index: 2.8
//
Sequence input: GRRKTWKRQNTLSLWRY [RPL15A]
protein stability index: 3.11
//
Sequence input: EALQYDPQPFLKHVLQL [SNU114]
protein stability index: 2.53
//
Sequence input: NYFVDTDLKKIIKANQL [RET1]
protein stability index: 2.85
//
Sequence input: ILSSLYLLSIWVKKFKW [CYT1]
protein stability index: 1.5
//
Sequence input: ARTATVSKKWAAAAVCE [RPL14A]
protein stability index: 3.21
//
Sequence input: EGLNQRNQVQTENVAQA [YGR119C/NUP57]
protein stability index: 2.89
//
Sequence input: RLECVKCKTRAQLTLKR [RPL42A]
protein stability index: 2.46
//
Sequence input: QVQGQQQAQSFVGKKNT [SSN3]
protein stability index: 2.69
//
Sequence input: INSDNQNIILRSTMMKF [RPN3]
protein stability index: 2.81
//
Sequence input: KQTADWLAEKFQKETNM [PRP28]
protein stability index: 3.12
//
Sequence input: FANYKLLLKKIIKDYVL [SRB4]
protein stability index: 2.24
//
Sequence input: LSIDKVLKKPNRAMEYD [RET1]
protein stability index: 2.56
//
Sequence input: RSDLQSKIQEIESIRSC [YIL149C/MLP2]
protein stability index: 2.79
//
Sequence input: RSLASFEQTAFSRHAQQ [SIR4]
protein stability index: 2.73
//
Sequence input: RISGLIYEEVRAVLKSF [HHF1]
protein stability index: 3.13
//
Sequence input: TSGTSSEQFNVWDWNNW [GAL11]
protein stability index: 3.11
//
Sequence input: AEENLKKRIRLPSEERI [YIL149C/MLP2]
protein stability index: 2.48
//
Sequence input: VLESHWKQDLTKEEAIK [PUP1]
protein stability index: 3.15
//
Sequence input: GIRGKLVTIEGALIHKA [SMC1]
protein stability index: 2.95
//
Sequence input: TQKRLAASVVGVGKRKV [RPL19A]
protein stability index: 1.32
//
Sequence input: KRVHTLLTLIVREYEQP [ISW2]
protein stability index: 2.55
//
Sequence input: TRIFQALPRKLRRRTAS [POP1]
protein stability index: 3.23

====

Known protein stability index of a selection of sequences
- Assay remarks: protein stability index of a GFP-peptide fusion (yeast GPS) (PSI 1-4); higher = more stable; sorted into four equal gates, so the index is relative within each strain
- Measurement setup: doa10∆
Assay readout: protein stability index

Sequence input: VLLDARDIEKITSLYAL [CDC53]
Assay readout: protein stability index
Recorded number: 1.69

Sequence input: TIHRSFTICLNDRNPRL [CSN12]
Assay readout: protein stability index
Recorded number: 2.82

Sequence input: RRRAFKRSQKKHKKKHL [RPB4]
Assay readout: protein stability index
Recorded number: 3.16

Sequence input: ILKWVQWSRIVLQNVFK [MED1]
Assay readout: protein stability index
Recorded number: 2.98

Sequence input: GMGGGMPDMNEMMKMMQ [SRP54]
Assay readout: protein stability index
Recorded number: 3.17

Sequence input: FKVQIIELLSYLVEAPW [YML103C/NUP188]
Assay readout: protein stability index
Recorded number: 1.71

Sequence input: ELLREWLETYSENRDKF [IRR1]
Assay readout: protein stability index
Recorded number: 3.34

Sequence input: TLIIDQVRKDLGNVIVP [NUT1]
Assay readout: protein stability index
Recorded number: 3.07

Sequence input: PNINTWQQVTALAQQKL [GAL11]
Assay readout: protein stability index
Recorded number: 2.2

Sequence input: LNAKYQSLGLDDLQKFN [ISW2]
Assay readout: protein stability index
Recorded number: 3.03

Sequence input: QPTGLLKGLNGFPSAPQ [YMR153W/NUP53]
Assay readout: protein stability index
Recorded number: 3.39

Sequence input: SEMLAKYSDILLKKATK [CDC53]
Assay readout: protein stability index
Recorded number: 2.62

Sequence input: QFVPELKEFTAKLRKEL [FAS2]
Assay readout: protein stability index
Recorded number: 1.53

Sequence input: LMAQIFFGPTYYQRLRH [RPB2]
Assay readout: protein stability index
Recorded number: 2.02

Sequence input: LIALSLIMALLQFRPAP [SMC2]
Assay readout: protein stability index
Recorded number: 1.62

Sequence input: EFLPLSLHILMIFWNDI [SRB8]
Assay readout: protein stability index
Recorded number: 1.36

Sequence input: ADITDGNNTELTKTTVN [YCG1]
Assay readout: protein stability index
Recorded number: 3.19

Sequence input: KLNKKLQHLRSRCHLVT [SRP68]
Assay readout: protein stability index
Recorded number: 3.23

Sequence input: STAAAPIAAPKKPRKPR [PGD1]
Assay readout: protein stability index
Recorded number: 2.72

Sequence input: EKDAVSVFGFRTQFGGG [RPS24A]
Assay readout: protein stability index
Recorded number: 1.92

Sequence input: RSPRVVTNALDNIDEKV [NUT1]
Assay readout: protein stability index
Recorded number: 2.92

Sequence input: EGLNQRNQVQTENVAQA [YGR119C/NUP57]
Assay readout: protein stability index
Recorded number: 2.96
